# ASSAYED_SYSTEM: T1, PAH1-FLAG (paired amphipathic helix 1 domain of Sin3B with a FLAG tag) (UniProt Q62141 31-107)
# T1 chain: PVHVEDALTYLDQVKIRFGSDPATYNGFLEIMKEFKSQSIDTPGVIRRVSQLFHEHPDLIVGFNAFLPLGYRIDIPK
# PROCEDURE_SUMMARY: SPR; brand-new sensor chip
Where no end group is shown, it is not given here.
PROPERTY_NAME: pKd
Give only the number. pKd is defined as minus log10 of concentration in molar units.

APQLIMLANVALTGE (also: biotin, site not given here) [biotinylated REST peptide (RE-1 silencing transcription factor, binding surface for Sin3B PAH1)] yielded pKd of 5.69
